test system: IGROV-1; assay: SRB colorimetric assay of cell growth and viability, IGROV-1; type: cell-based, human; conditions: 48 hours exposure, SRB
Observed Property: GI50 (nM)
Numbers only, in nM.

Query: Report GI50 for C/C=C1\NC(=O)[C@H](Cc2ccc(F)cc2)NC(=O)[C@@H](C(C)C)NC(=O)[C@@H]([C@@H](C)CC)NC(=O)[C@H](NC(=O)[C@H](NC(=O)[C@H](CCCN)NC(=O)[C@H]2CCCN2C(=O)[C@H](NC(=O)[C@@H](NC(=O)[C@@H](NC(=O)[C@H](NC(=O)CC[C@@H](C)CC)C(C)C)[C@@H](C)O)C(C)C)C(C)C)[C@@H](C)CC)[C@@H](C)OC(=O)[C@H](C(C)C)NC1=O [Compound 74, [Phe(4-F)^3, (4S)-MeHex^14]-KF]
Reply: 206

---

Exercise: state measured GI50 for each of the compounds provided.
system: SK-MEL-28; assay: SRB colorimetric assay of cell growth and viability, SK-MEL-28; assay type: cell-based, human; conditions: MEL-28; 48 hours exposure
Where a SMILES comes first, the peptide text is derived from it. Bridges are numbered along the chain shown (N, C = ends). [ ]: non-standard residue; d: D form. The star is where a group is joined. d(aIle) = CC[C@H](C)[C@@H](N)C(=O)O; d(aThr) = C[C@@H](O)[C@@H](N)C(=O)O; Hexanoyl(5-Me) = CC(C)CCCC(=O)*; Orn = NCCC[C@H](N)C(=O)O; Dhb = C/C=C(\N)C(=O)O

Compound	GI50
C/C=C1\NC(=O)[C@H](Cc2ccccc2)NC(=O)[C@@H](C(C)C)NC(=O)[C@@H]([C@@H](C)CC)NC(=O)[C@H](NC(=O)[C@H](NC(=O)[C@H](CCCN)NC(=O)[C@H]2CCCN2C(=O)[C@H](NC(=O)[C@@H](NC(=O)[C@@H]2CCCN2C(=O)[C@H](NC(=O)CCCC(C)C)C(C)C)C(C)C)C(C)C)[C@@H](C)CC)[C@@H](C)OC(=O)[C@H](C(C)C)NC1=O [Compound 117, [Pro^12]-KF] ({Hexanoyl(5-Me)}-[dV]PV[dV][dP][Orn][d(aIle)][d(aThr)][d(aIle)][dV]F[Dhb]V; ester 8-C)	2000 nM
C/C=C1\NC(=O)[C@H](Cc2ccccc2)NC(=O)[C@@H](C(C)C)NC(=O)[C@@H]([C@@H](C)CC)NC(=O)[C@H](NC(=O)[C@H](NC(=O)[C@H](CCCN)NC(=O)[C@H]2CCCN2C(=O)[C@H](NC(=O)[C@@H](NC(=O)[C@H](C)NC(=O)[C@H](NC(=O)CCCC(C)C)C(C)C)C(C)C)C(C)C)[C@@H](C)CC)[C@@H](C)OC(=O)[C@H](C(C)C)NC1=O [Compound 112, [Ala^12]-KF] ({Hexanoyl(5-Me)}-[dV]AV[dV][dP][Orn][d(aIle)][d(aThr)][d(aIle)][dV]F[Dhb]V; ester 8-C)	1390 nM
C/C=C1\NC(=O)[C@H](Cc2ccccc2)NC(=O)[C@@H](C(C)C)NC(=O)[C@@H]([C@@H](C)CC)NC(=O)[C@H](NC(=O)[C@H](NC(=O)[C@H](CCCN)NC(=O)[C@H]2CCCN2C(=O)[C@H](NC(=O)[C@@H](NC(=O)[C@H](CCC(=O)O)NC(=O)[C@H](NC(=O)CCCC(C)C)C(C)C)C(C)C)C(C)C)[C@@H](C)CC)[C@@H](C)OC(=O)[C@H](C(C)C)NC1=O [Compound 115, [Glu^12]-KF] ({Hexanoyl(5-Me)}-[dV]EV[dV][dP][Orn][d(aIle)][d(aThr)][d(aIle)][dV]F[Dhb]V; ester 8-C)	6500 nM

Alright, here's another compound for you.
Query: For SK-MEL-28, give the measured GI50 of the entry C/C=C1\NC(=O)[C@H](Cc2ccccc2)NC(=O)[C@@H](C(C)C)NC(=O)[C@@H]([C@@H](C)CC)NC(=O)[C@H](NC(=O)[C@H](NC(=O)[C@H](CCCN)NC(=O)[C@H]2CCCN2C(=O)[C@H](NC(=O)[C@@H](NC(=O)[C@@H](NC(=O)[C@@H](CCCN)NC(=O)CCCC(C)C)[C@@H](C)O)C(C)C)C(C)C)[C@@H](C)CC)[C@@H](C)OC(=O)[C@H](C(C)C)NC1=O [Compound 118, [D-Orn^13]-KF]
Reply: 1490 nM
